The measurements presented in this section are drawn from ChEMBL document CHEMBL5584354.

- test: Hemolytic activity in male Sprague-Dawley rat erythrocytes at 25 uM incubated for 1 hr by absorbance based method relative to control
- Format: toxicity, cell-based, Erythrocyte
- settings: read-out: Activity
Non-standard residues stand in square brackets, D forms with d. Residues, ends and D or L forms follow the SMILES beside them. Gly(N(CH2)2(3-indolyl)) = O=C(O)CNCCc1c[nH]c2ccccc12; Nspe = C[C@H](NCC(=O)O)c1ccccc1; Nphe = O=C(O)CNCc1ccccc1; Nlys = NCCCCNCC(=O)O
Item-by-item account of hemolysis at 1 h, 25 µM

compound	hemolysis at 1 h, 25 µM / %
C[C@@H](c1ccccc1)N(CC(N)=O)C(=O)CN(CCCCN)C(=O)CN(Cc1ccccc1)C(=O)CN(Cc1ccccc1)C(=O)CN(CCCCN)C(=O)CN(C(=O)CN(C(=O)CN(CCCCN)C(=O)CN(Cc1ccccc1)C(=O)CN(Cc1ccccc1)C(=O)CN(CCCCN)C(=O)CNC(=O)[C@H](Cc1c[nH]cn1)NC(=O)CNC(=O)CN)[C@@H](C)c1ccccc1)[C@@H](C)c1ccccc1 (H-GGHG[Nlys][Nphe][Nphe][Nlys][Nspe][Nspe][Nlys][Nphe][Nphe][Nlys][Nspe]-NH2)	0.91
C[C@@H](c1ccccc1)N(CC(=O)N(CCCCN)CC(=O)N(CC(=O)N(CC(=O)N(CCCCN)CC(=O)N(CC(=O)N(CC(=O)N(CCCCN)CC(=O)N(CCc1c[nH]c2ccccc12)CC(=O)N(CCc1c[nH]c2ccccc12)CC(N)=O)[C@@H](C)c1ccccc1)[C@@H](C)c1ccccc1)[C@@H](C)c1ccccc1)[C@@H](C)c1ccccc1)C(=O)CN(C(=O)CNCCCCN)[C@@H](C)c1ccccc1 (H-[Nlys][Nspe][Nspe][Nlys][Nspe][Nspe][Nlys][Nspe][Nspe][Nlys][Gly(N(CH2)2(3-indolyl))][Gly(N(CH2)2(3-indolyl))]-NH2)	29.9

----------
- test: Hemolytic activity in male Sprague-Dawley rat erythrocytes at 100 uM incubated for 1 hr by absorbance based method relative to control
- Assay type: toxicity, cell-based, Erythrocyte
- settings: read-out: Activity
Non-standard residues stand in square brackets, D forms with d. Residues, ends and D or L forms follow the SMILES beside them. Nspe = C[C@H](NCC(=O)O)c1ccccc1; Nphe = O=C(O)CNCc1ccccc1; Nlys = NCCCCNCC(=O)O
Overview of recorded hemolysis at 1 h, 100 µM for various molecules
measure-name: hemolysis at 1 h, 100 µM

molecule	measurement
C[C@@H](c1ccccc1)N(CC(=O)N(CCCCN)CC(=O)N(CC(=O)N(CC(=O)N(CCCCN)CC(=O)N(CC(=O)N(CC(N)=O)Cc1ccccc1)Cc1ccccc1)[C@@H](C)c1ccccc1)[C@@H](C)c1ccccc1)C(=O)CN(C(=O)CN(CCCCN)C(=O)CN(Cc1ccccc1)C(=O)CN(Cc1ccccc1)C(=O)CN(CCCCN)C(=O)[C@H](Cc1c[nH]cn1)NC(=O)CNC(=O)CN)[C@@H](C)c1ccccc1 (H-GGH[Nlys][Nphe][Nphe][Nlys][Nspe][Nspe][Nlys][Nspe][Nspe][Nlys][Nphe][Nphe]-NH2)	18.4%
C[C@@H](c1ccccc1)N(CC(=O)N(CCCCN)CC(=O)N(CC(=O)N(CC(=O)N(CCCCN)CC(=O)N(CC(=O)N(CC(N)=O)Cc1ccccc1)Cc1ccccc1)[C@@H](C)c1ccccc1)[C@@H](C)c1ccccc1)C(=O)CN(C(=O)CN(CCCCN)C(=O)CN(Cc1ccccc1)C(=O)CN(Cc1ccccc1)C(=O)CNCCCCN)[C@@H](C)c1ccccc1 (H-[Nlys][Nphe][Nphe][Nlys][Nspe][Nspe][Nlys][Nspe][Nspe][Nlys][Nphe][Nphe]-NH2)	60.9%
C[C@@H](c1ccccc1)N(CC(N)=O)C(=O)CN(CCCCN)C(=O)CN(C(=O)CN(C(=O)CN(CCCCN)C(=O)CN(C(=O)CN(C(=O)CN(CCCCN)C(=O)CN(C(=O)CN(C(=O)CN(CCCCN)C(=O)[C@H](Cc1c[nH]cn1)NC(=O)CNC(=O)CN)[C@@H](C)c1ccccc1)[C@@H](C)c1ccccc1)[C@@H](C)c1ccccc1)[C@@H](C)c1ccccc1)[C@@H](C)c1ccccc1)[C@@H](C)c1ccccc1 (H-GGH[Nlys][Nspe][Nspe][Nlys][Nspe][Nspe][Nlys][Nspe][Nspe][Nlys][Nspe]-NH2)	61.6%
